- target desc: muscarinic receptors (3H-CD sites, M1 and M2, forebrain)
- measurement description: Displacement of 3H-cis-dioxolane (3H-CD, non-selective M1 and M2 agonist) from rat forebrain homogenate
- Assay type: binding
- experimental context: Table 2B column (c'), footnote *forebrain
measurement kind: Ki (µM)
Give the quantity in µM, number only.

Prompt: Under muscarinic receptors (3H-CD sites, M1 and M2, forebrain): Ki value of CC1OCC2(CN3CCC2CC3)S1 (stereo not shown) [compound 11] ?
Response: 0.75

====

- target desc: M1 muscarinic receptors (3H-PZ sites, forebrain) (Rattus norvegicus, UniProt P08482)
- Sequence (P08482 whole entry): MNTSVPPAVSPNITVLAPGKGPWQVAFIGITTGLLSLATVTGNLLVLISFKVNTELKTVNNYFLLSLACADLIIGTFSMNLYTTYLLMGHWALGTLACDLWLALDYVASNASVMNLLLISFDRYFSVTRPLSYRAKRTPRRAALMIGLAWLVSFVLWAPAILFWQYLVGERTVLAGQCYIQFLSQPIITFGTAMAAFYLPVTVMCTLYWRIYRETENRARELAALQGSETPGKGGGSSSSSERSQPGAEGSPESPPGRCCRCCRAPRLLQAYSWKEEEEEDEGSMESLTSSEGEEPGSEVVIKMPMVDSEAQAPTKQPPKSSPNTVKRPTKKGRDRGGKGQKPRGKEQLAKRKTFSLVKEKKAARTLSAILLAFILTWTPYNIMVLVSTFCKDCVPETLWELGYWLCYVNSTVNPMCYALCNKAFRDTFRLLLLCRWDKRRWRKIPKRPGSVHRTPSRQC
measurement kind: pKi
Units for pKi: none; it is -log10 of a concentration expressed in mol/L.

Prompt: Under M1 muscarinic receptors (3H-PZ sites, forebrain) (Rattus norvegicus, UniProt P08482): pKi value of CC1OCC2(CN3CCC2CC3)S1 (centres unmarked) [compound 7] ?
Response: 5.91

Prompt: Under M1 muscarinic receptors (3H-PZ sites, forebrain) (Rattus norvegicus, UniProt P08482): pKi value of C[C@H]1O[C@]2(CS1)CN1CCC2CC1 (single isomer, unassigned) [Compound #5] ?
Response: 5.96

Prompt: Under M1 muscarinic receptors (3H-PZ sites, forebrain) (Rattus norvegicus, UniProt P08482): pKi value of C[C@H]1O[C@]2(CS1)CN1CCC2CC1 (single isomer, unassigned) [compound 6] ?
Response: 5.02

Prompt: Under M1 muscarinic receptors (3H-PZ sites, forebrain) (Rattus norvegicus, UniProt P08482): pKi value of C[C@H]1O[C@]2(CS1)CN1CCC2CC1 (relative stereo) [compound 4] ?
Response: 6.00

Prompt: Under M1 muscarinic receptors (3H-PZ sites, forebrain) (Rattus norvegicus, UniProt P08482): pKi value of C[C@@H]1O[C@]2(CS1)CN1CCC2CC1 (relative stereo) [compound 3] ?
Response: 4.84
